# TEST_METHOD_NOTES: MTT cytotoxicity assay
# Assay type: cell-based
# PROTOCOL_CONDITIONS: African green monkey, Vero cells
ENDPOINT_LABEL: CC50 at 12 h (µg/mL)
State just the number; it will be interpreted in µg/mL.

Please report the recorded CC50 at 12 h for CC1=CCC2CC1C2(C)C (stereo not shown) .
226

###

# TEST_METHOD_NOTES: MTT cytotoxicity assay
# Format: cell-based
# PROTOCOL_CONDITIONS: African green monkey, Vero cells
ENDPOINT_LABEL: CC50 at 48 h
Don't forget the unit after the value.

What value of CC50 at 48 h has been recorded for this entry: CC1=CCC2CC1C2(C)C (stereo not shown)
116 µg/mL

From: paper PMC11033537
